measurementProtocol: absolute recovery over mixed-bed multilayer solid-phase extraction; higher = better recovery
conditionNotes: wastewater effluent; enrichment method: SPE
measuredParameter: absolute recovery (%)
Numbers only, in %.

The following compounds have reported results that may help.
{"columns": ["compound", "measuredParameter", "numericValue"],
 "data": [
  ["CCc1cccc2c3c([nH]c12)C(CC)(CC(=O)[O-])OCC3 (stereo not given)", "absolute recovery", 82.3],
  ["COc1c(Cl)ccc(Cl)c1C(=O)[O-]", "absolute recovery", 93.5],
  ["CN1C(=O)CN=C(C2=CCCCC2)c2cc(Cl)ccc21", "absolute recovery", 64.4],
  ["CCCCOCCOCCOCc1cc2c(cc1CCC)OCO2 [Piperonyl-butoxide]", "absolute recovery", 88.9]
]}

Look at each compound and report its absolute recovery.
1. C#CC[NH2+]C(C)Cc1ccccc1 (stereo not given)
2. COc1nn(CSP(=S)(OC)OC)c(=O)s1
3. CC[NH+](CC)CC#CCOC(=O)C(O)(c1ccccc1)C1CCCCC1 (stereo not given)
4. CC(=O)N(C)c1ccc(N)cc1

[reply]
[80.2, 96.5, 89.1, 56.8]

Record absolute recovery per entry; entries follow.
1. CCCC(C)C1(CC)C(=O)N=C([S-])NC1=O (stereo not given)
2. CC(C)(Oc1ccc(CCNC(=O)c2ccc(Cl)cc2)cc1)C(=O)[O-]

[reply]
1. 66.9
2. 92.9

---

measurementProtocol: absolute recovery over mixed-bed multilayer solid-phase extraction; higher = better recovery
conditionNotes: wastewater influent; enrichment method: SPE
We use 90% as the dividing line for absolute recovery: on or above the line is true (1), below is false (0).

Some solved entries appear below for comparison.
{"columns": ["molecule", "assignedCategory"],
 "data": [
  ["CON=C(C(=O)OC)c1ccccc1CON=C(C)c1cccc(C(F)(F)F)c1", "true (1)"],
  ["O=C(C1CCCCC1)N1CC(=O)N2CCc3ccccc3C2C1 (stereo not given)", "true (1)"],
  ["CC(C)(Oc1ccc(C(=O)c2ccc(Cl)cc2)cc1)C(=O)[O-]", "true (1)"]
]}

[ask] In plain terms: is recorded absolute recovery at least 90% for C[NH+]1C2CCC1C(C(=O)[O-])C(OC(=O)c1ccccc1)C2 (stereo not given) ?
[reply] true (1)

---

Assignment: determine reported absolute recovery for the given molecules.
measurementProtocol: absolute recovery over mixed-bed multilayer solid-phase extraction; higher = better recovery
conditionNotes: wastewater influent; enrichment method: SPE
Numbers only, in %.

These solved cases illustrate the format of a correct answer.
{"columns": ["molecule", "absolute recovery, %"],
 "data": [
  ["COc1cc(OC)nc(NC(=O)[N-]S(=O)(=O)c2ncccc2C(=O)N(C)C)n1", 95.7],
  ["C#CC[NH2+]C(C)Cc1ccccc1 (centres undefined)", 78.3],
  ["Cc1nnc(-c2ccccc2)c(=O)n1N", 97.5],
  ["COc1ccc(C(C[NH+](C)C)C2(O)CCCCC2)cc1 (centres undefined)", 99.1],
  ["CCC1OC(=O)C(C)C(OC2CC(C)(OC)C(O)C(C)O2)C(C)C(OC2OC(C)CC([NH+](C)C)C2O)C(C)(O)CC(C)C(=NOCOCCOC)C(C)C(O)C1(C)O (centres undefined)", 98.8],
  ["COP(=O)(OC)OC=C(Cl)Cl", 87.4],
  ["CSc1nc(NC2CC2)nc(NC(C)(C)C)n1", 91.2],
  ["CCOc1cc(CC(=O)NC(CC(C)C)c2ccccc2N2CCCCC2)ccc1C(=O)[O-] (centres undefined) [Repaglinide]", 94.8]
]}

// next entry
[ask] Returns the measured absolute recovery for the input molecule. Input: `CC[NH+](CC)CCNC(=O)c1cc(S(C)(=O)=O)ccc1OC`
[reply] 94.9

---

measurementProtocol: LC retention time (Atlantis T3, 5-95% MeOH gradient, 0.1% formic acid); higher = more retained / less polar
Entries are sorted into classes by LC retention time as follows: low value (below 10 min), medium value (10 min to below 20 min), high value (20 min or more)

Would you please look over these solved cases?
{"columns": ["molecule", "assignedCategory"],
 "data": [
  ["CC(=O)Nc1c(C)n(C)n(-c2ccccc2)c1=O [4-Acetamidoantipyrin (=N-Acetyl-4-Aminoantipyrin, 4-AAA)]", "medium value"],
  ["CCCC1COC(Cn2cncn2)(c2ccc(Cl)cc2Cl)O1 (stereo not drawn)", "high value"],
  ["NS(=O)(=O)c1cc(C2(O)NC(=O)c3ccccc32)ccc1Cl (stereo not drawn)", "medium value"]
]}

[ask] Which class is correct for the following molecule? `CON=C(C(=O)OC)c1ccccc1COc1ccccc1C`
[reply] high value

[ask] Class label required: COCCCOc1cc(CC(CC([NH3+])C(O)CC(C(=O)NCC(C)(C)C(N)=O)C(C)C)C(C)C)ccc1OC (stereo not drawn)
[reply] medium value

[ask] Looking at `CNC(=O)Nc1ccc(Cl)c(Cl)c1` , which class would you pick?
[reply] medium value

[ask] Please classify: `Cn1sc(Cl)cc1=O`
[reply] medium value

[ask] Band assignment needed for `O=C([O-])COc1ccc(Cl)cc1Cl` please.
[reply] medium value

---

measurementProtocol: absolute recovery over vacuum-assisted evaporative concentration; higher = better recovery
conditionNotes: wastewater influent; enrichment method: VEC
Please provide measured absolute recovery for the entries that follow.
Answers are plain numbers, in %.

Worked examples follow.
{"columns": ["molecule", "measuredParameter", "numericValue"],
 "data": [
  ["C[NH2+]CCCC(C#N)(c1ccc(OC)c(OC)c1)C(C)C (centres undefined)", "absolute recovery", 100],
  ["O=c1[nH]c2c(c(=O)n1C1CCCCC1)CCC2", "absolute recovery", 103],
  ["Cc1ccc(NS(=O)(=O)N(C)C)cc1 [N-N-dimethyl-N-(4-methylphenyl)-sulfamide]", "absolute recovery", 104]
]}

The following molecules each have a reported value; give each one's absolute recovery.
1. CCS(=O)(=O)c1cccnc1S(=O)(=O)[N-]C(=O)Nc1nc(OC)cc(OC)n1
2. C[NH+]1CCC23c4c5ccc(O)c4OC2C(O)C=CC3C1C5 (centres undefined)

[reply]
85
99.7

The following molecules each have a reported value; give each one's absolute recovery.
1. CN1C(=O)CN=C(c2ccccc2)c2cc(Cl)ccc21
2. COc1ccc2c3c1OC1C(=O)CCC4C(C2)[NH+](C)CCC314 (centres undefined) [Hydrocodone]
3. CSc1nnc(C(C)(C)C)c(=O)n1N
4. CCCCCC(C)OC(=O)COc1ccc(Cl)c2cccnc12 (centres undefined)
5. CNC(=C[N+](=O)[O-])NCCSCc1ccc(C[NH+](C)C)o1
6. O=C([O-])C=C(F)C(F)(F)C(F)(F)C(F)(F)C(F)(F)C(F)(F)F

[reply]
[99.2, 100, 99.6, 103, 98.7, 97.7]

Provide each entry's absolute recovery from the list below.
1. O=c1ccn(C2OC(CO)C(O)C2(F)F)c(=O)[nH]1 (centres undefined)
2. CC[N+]1([O-])CCCC1CNC(=O)c1cc(S(=O)(=O)CC)c(N)cc1OC (centres undefined) [Amisulpride-N-Oxide]
3. COC(=O)C1C(OC(=O)c2ccccc2)CC2CCC1[NH+]2C (centres undefined)
4. CC1CC2C(C(O)CC3(C)C2CCC3(O)C(=O)CO)C2(C)C=CC(=O)C=C12 (centres undefined)
5. CCc1cccc2c3c([nH]c12)C(CC)(CC(=O)[O-])OCC3 (centres undefined)

[reply]
[88.2, 105, 62.2, 101, 99.8]

Your task in this section: give absolute recovery for each listed record.
1. COC(=O)c1sccc1S(=O)(=O)[N-]C(=O)Nc1nc(C)nc(OC)n1
2. CCOP(=S)(OCC)Oc1cc(C)nc(C(C)C)n1
3. O=C([O-])C(F)(F)C(F)(F)C(F)(F)C(F)(F)C(F)(F)F

[reply]
[114, 18.9, 89.4]

---

I'd be grateful if you could share measured absolute recovery for these entries.
measurementProtocol: absolute recovery over mixed-bed multilayer solid-phase extraction; higher = better recovery
conditionNotes: nanopure water; enrichment method: SPE
Give bare numbers, in %.

Take each entry in turn and give its absolute recovery.
1. CN(C)c1nc(=O)n(C2CCCCC2)c(=O)n1C [Hexazinon]
2. COc1ccc2c3c1OC1C(O)C=CC4C(C2)[NH+](C)CCC341 (stereo not given) [Codein]
3. COc1cccc(C(=O)NN(C(=O)c2cc(C)cc(C)c2)C(C)(C)C)c1C [Methoxyfenozid]
4. CCc1cccc(C)c1N1C(=O)COCC1C (stereo not given) [Metolachlor-Morpholinon]
5. CC(C)=NOCCOC(=O)C(C)Oc1ccc(Oc2cnc3cc(Cl)ccc3n2)cc1 (stereo not given) [Propaquizafop]

[reply]
96.4
90.2
104
102
79.1

// batch mode: one absolute recovery value per listed entry
1. C=CS(=O)(=O)[O-] [Vinylsulfonic-acid]
2. COP(=O)(OC)SCn1c(=O)oc2cc(Cl)cnc21 [Azamethiphos]
3. Cc1cc(Cl)ccc1OCCCC(=O)[O-] [MCPB]
4. CC(C)[NH2+]CC(O)COc1ccc(CC(=O)[O-])cc1 (stereo not given) [Atenolol-acid (=Metoprolol acid)]
5. C#CC[NH2+]C(C)Cc1ccccc1 (stereo not given) [Nordeprenyl]

[reply]
1. 1.5
2. 65.5
3. 100
4. 97.3
5. 74.8
